The following compounds each carry a recorded Kd for UniProt:Q8LBL5.
Sequence (Q8LBL5 whole entry): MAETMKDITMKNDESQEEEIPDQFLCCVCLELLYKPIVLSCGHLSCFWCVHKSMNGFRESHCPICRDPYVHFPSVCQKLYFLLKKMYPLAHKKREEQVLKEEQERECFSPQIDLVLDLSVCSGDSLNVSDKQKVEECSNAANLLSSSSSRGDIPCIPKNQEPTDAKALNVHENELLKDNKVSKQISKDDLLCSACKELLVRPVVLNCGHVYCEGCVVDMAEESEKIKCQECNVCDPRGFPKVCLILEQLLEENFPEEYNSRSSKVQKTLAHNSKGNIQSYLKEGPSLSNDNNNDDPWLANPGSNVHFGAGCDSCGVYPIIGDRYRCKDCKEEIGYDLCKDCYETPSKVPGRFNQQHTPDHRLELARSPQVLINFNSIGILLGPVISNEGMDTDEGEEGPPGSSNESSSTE
Peptide text beside a SMILES is read from it.
Provide only the numeric value, understood in µM.

COMPOUND	TEST TARGET	READOUT	NUMBER
C[C@H](NC(=O)[C@H](C)NC(=O)[C@@H](N)Cc1ccccc1)C(=O)O [FAA] (H-Phe-Ala-Ala-OH)	UniProt:Q8LBL5	Kd	5.45

Moving on to another compound below.
# query: Kd | item C[C@H](NC(=O)[C@H](C)NC(=O)[C@@H](N)Cc1c[nH]c2ccccc12)C(=O)O [WAA] (H-Trp-Ala-Ala-OH) | system: UniProt:Q8LBL5
2.85
